Test system: rodent lifetime carcinogenesis bioassay, tumor incidence TD50
measurement_description: carcinogenic potency in animals, long-term in vivo studies, CPDB compilation (AID 1745844)
condition_summary: rat; strain Alpk:APfSD; males; in feed; site: liver; lesion: hepatocellular carcinoma; dosed 104 weeks; study length 104 weeks
property_label: TD50

(Q) Look up TD50: `COC(=O)C(C)(C)Oc1ccc(-c2ccc(Cl)cc2)cc1`
(A) 2.87 mg/kg/day

* * *

System: rodent lifetime carcinogenesis bioassay, tumor incidence TD50
measurement_description: carcinogenic potency in animals, long-term in vivo studies, CPDB compilation (AID 1745844)
condition_summary: rat; strain Fischer 344; males; in drinking water; site: palate + tongue; lesion: squamous-cell papilloma; dosed 97 weeks; study length 97 weeks
property_label: TD50 (mg/kg/day)
One number for each entry, in mg/kg/day.

(Q) Request the reported TD50 associated with `COc1cc(-c2ccc(N=Nc3c(S(=O)(=O)O)cc4cc(S(=O)(=O)O)cc(N)c4c3O)c(OC)c2)ccc1N=Nc1c(S(=O)(=O)O)cc2cc(S(=O)(=O)O)cc(N)c2c1O`
(A) 43.6

* * *

Tested on: rodent lifetime carcinogenesis bioassay, tumor incidence TD50
measurement_description: carcinogenic potency in animals, long-term in vivo studies, CPDB compilation (AID 1745844)
condition_summary: rat; strain Fischer 344; males; in drinking water; site: thyroid gland; lesion: follicular-cell adenoma; dosed 107 weeks; study length 107 weeks
property_label: TD50

(Q) Please look up its TD50: `C=CC(N)=O`
(A) 7.49 mg/kg/day

* * *

Tested on: rodent lifetime carcinogenesis bioassay, tumor incidence TD50
measurement_description: carcinogenic potency in animals, long-term in vivo studies, CPDB compilation (AID 1745844)
condition_summary: mouse; strain CF-1; females; in feed; site: liver; lesion: hepatoma; dosed 78 weeks; study length 78 weeks
property_label: TD50

(Q) For the molecule shown here, `CC(C)(C)NC[C@H](O)COc1cccc2c1CCCC2=O` , give the reported TD50.
(A) 5010 mg/kg/day

* * *

System: rodent lifetime carcinogenesis bioassay, tumor incidence TD50
measurement_description: carcinogenic potency in animals, long-term in vivo studies, CPDB compilation (AID 1745844)
condition_summary: mouse; strain Swiss; females; i.p.; site: uterus; lesion: carcinoma; dosed 26 weeks; study length 76 weeks
property_label: TD50 (mg/kg/day)
Give bare numbers, in mg/kg/day.

(Q) # query: TD50 of entry `CNNCc1ccc(C(=O)NC(C)C)cc1`
(A) 5.75

* * *

Tested on: rodent lifetime carcinogenesis bioassay, tumor incidence TD50
measurement_description: carcinogenic potency in animals, long-term in vivo studies, CPDB compilation (AID 1745844)
condition_summary: rat; strain F344/DuCrj; females; in drinking water; site: esophagus; lesion: several types; types named in the paper; dosed 50 weeks; study length 50 weeks
property_label: TD50

(Q) Request the reported TD50 associated with `CCCCN(N=O)C(N)=O`
(A) 3.21 mg/kg/day

* * *

Provide the recorded TD50 for the entries that follow.
System: rodent lifetime carcinogenesis bioassay, tumor incidence TD50
measurement_description: carcinogenic potency in animals, long-term in vivo studies, CPDB compilation (AID 1745844)
condition_summary: mouse; strain B6C3F1; females; by gavage; site: liver; lesion: hepatocellular adenoma + hepatocellular carcinoma + neoplastic nodule; dosed 104 weeks; study length 104 weeks
Numbers only, in mg/kg/day.

smiles_representation	measurement_unit	value_reported
Oc1cccc(O)c1	mg/kg/day	1560
O=P(OCCCl)(OCCCl)OCCCl	mg/kg/day	2870

Please give TD50 for each item listed below.
1. Clc1cc2c(cc1Cl)Oc1cc(Cl)c(Cl)cc1O2
2. CC1(C)S[C@@H]2[C@H](NC(=O)COc3ccccc3)C(=O)N2[C@H]1C(=O)O

(A)
1. 0.000756
2. 10200

* * *

System: rodent lifetime carcinogenesis bioassay, tumor incidence TD50
measurement_description: carcinogenic potency in animals, long-term in vivo studies, CPDB compilation (AID 1745844)
condition_summary: mouse; strain B6C3F1; females; by gavage; site: any site (literature study); lesion: several types; types named in the paper; dosed 105 weeks; study length 105 weeks
property_label: TD50 (mg/kg/day)
One number for each entry, in mg/kg/day.

(Q) Entry `C=C1C/C(=C/C)C(=O)O[C@@H]2CCN3CC=C(COC(=O)[C@@]1(O)CO)[C@H]23` : reported TD50 = ?
(A) 0.691

* * *

Tested on: rodent lifetime carcinogenesis bioassay, tumor incidence TD50
measurement_description: carcinogenic potency in animals, long-term in vivo studies, CPDB compilation (AID 1745844)
condition_summary: mouse; strain C3HeB/FeJ; females; in feed; site: lung; lesion: several types; types named in the paper; dosed 104 weeks; study length 104 weeks
property_label: TD50 (mg/kg/day)
Numbers only, in mg/kg/day.

(Q) Kindly state the measured TD50 obtained for `CCN(Cc1cccc(S(=O)(=O)O)c1)c1ccc(C(=C2C=CC(=[N+](CC)Cc3cccc(S(=O)(=O)[O-])c3)C=C2)c2ccc(S(=O)(=O)O)cc2)cc1` with rodent lifetime carcinogenesis bioassay, tumor incidence TD50.
(A) 43800

* * *

System: rodent lifetime carcinogenesis bioassay, tumor incidence TD50
measurement_description: carcinogenic potency in animals, long-term in vivo studies, CPDB compilation (AID 1745844)
condition_summary: mouse; strain CD-1 HaM/ICR; males; in feed; site: any site (literature study); lesion: several types; types named in the paper; dosed 77 weeks; study length 90 weeks
The source made the active and inactive calls. How the calls were made is not given here.
property_label: TD50

smiles_representation	TD50
COc1ccc(OC)c(/C=C/c2ccc(N)cc2)c1	126 mg/kg/day

Moving on to another compound below.
(Q) Would you mind telling me what TD50 value was observed for `Cc1ccc(N)c(C)c1` ?
(A) 646 mg/kg/day (inactive)

* * *

Tested on: rodent lifetime carcinogenesis bioassay, tumor incidence TD50
measurement_description: carcinogenic potency in animals, long-term in vivo studies, CPDB compilation (AID 1745844)
condition_summary: rat; strain Fischer 344; males; by gavage; site: liver; lesion: neoplastic nodule; dosed 103 weeks; study length 105 weeks
Activity calls are given as the source filed them. The rule behind the calls is not given here.
property_label: TD50

(Q) TD50 for CCCC(Cl)CCCC(Cl)CCC(Cl)CCC(Cl)CCC(Cl)CCCC(Cl)CCC (stereo unspecified) ?
(A) 14500 mg/kg/day (inactive)

* * *

Consider the following compounds; for each one, report its TD50.
Tested on: rodent lifetime carcinogenesis bioassay, tumor incidence TD50
measurement_description: carcinogenic potency in animals, long-term in vivo studies, CPDB compilation (AID 1745844)
condition_summary: mouse; strain B6C3F1; males; oral dosing; site: liver; lesion: hepatoma; dosed 81 weeks; study length 81 weeks

smiles_representation	value_reported
CCCc1ccc2c(c1)OCO2	90 mg/kg/day

Moving on to another compound below.
(Q) Endpoint output: TD50 of `CCN(CC)C(=S)S[Se](SC(=S)N(CC)CC)(SC(=S)N(CC)CC)SC(=S)N(CC)CC` . Value?
(A) 1.49 mg/kg/day

* * *

System: rodent lifetime carcinogenesis bioassay, tumor incidence TD50
measurement_description: carcinogenic potency in animals, long-term in vivo studies, CPDB compilation (AID 1745844)
condition_summary: rat; strain Fischer 344; males; by gavage; site: liver; lesion: hepatocellular adenoma; dosed 104 weeks; study length 104 weeks
property_label: TD50 (mg/kg/day)
Answers are plain numbers, in mg/kg/day.

(Q) Record lookup: for rodent lifetime carcinogenesis bioassay, tumor incidence TD50, what TD50 belongs to `CCCCCCCC(=O)OCC(COC(=O)CCCCCCC)OC(=O)CCCCCCC` ?
(A) 37100

* * *

System: rodent lifetime carcinogenesis bioassay, tumor incidence TD50
measurement_description: carcinogenic potency in animals, long-term in vivo studies, CPDB compilation (AID 1745844)
condition_summary: rat; strain Fischer 344; males; in feed; site: thyroid gland; lesion: follicular-cell carcinoma; dosed 103 weeks; study length 104 weeks
Kindly supply the reported TD50 values for the records listed here.

smiles_representation	TD50
N=C1C=CC(=C(c2ccc(N)cc2)c2ccc(N)cc2)C=C1	73.9 mg/kg/day

(Q) Field: TD50 (rodent lifetime carcinogenesis bioassay, tumor incidence TD50). Entry: `CCNC(=S)NCC`
(A) 33.6 mg/kg/day

* * *

Test system: rodent lifetime carcinogenesis bioassay, tumor incidence TD50
measurement_description: carcinogenic potency in animals, long-term in vivo studies, CPDB compilation (AID 1745844)
condition_summary: mouse; strain B6C3F1; females; by gavage; site: all sites; lesion: leukemia + lymphoma; dosed 70 weeks; study length 83 weeks
property_label: TD50

(Q) Lab note: need TD50 for `CC(C)CCC[C@@H](C)[C@H]1CC[C@H]2[C@@H]3CC=C4C[C@@H](OC(=O)Cc5ccc(N(CCCl)CCCl)cc5)CC[C@]4(C)[C@H]3CC[C@]12C` on rodent lifetime carcinogenesis bioassay, tumor incidence TD50, anyone have it?
(A) 0.652 mg/kg/day

* * *

Test system: rodent lifetime carcinogenesis bioassay, tumor incidence TD50
measurement_description: carcinogenic potency in animals, long-term in vivo studies, CPDB compilation (AID 1745844)
condition_summary: rat; strain F344/DuCrj; males; in feed; site: skin; lesion: squamous-cell carcinoma; dosed 61 weeks; study length 61 weeks
property_label: TD50

(Q) State the recorded TD50 for this entry: `Cc1cnc2ccc3c(nc(N)n3C)c2n1`
(A) 13.1 mg/kg/day
